# Test system: UEA-1 binding sites on Caco-2 cell membrane preparations
# procedure details: Single tier competition assay: inhibition of biotinylated UEA-1 binding, compound and biotinylated UEA-1 incubated together
# Design: species or system human
# experimental context: library MSI 27; read-out: Single Tier Assay IC50
Give log10 IC50 for every item shown.
Remember, log10 of IC50, in µM.

Ask: Given the molecule COc1cc(C(=O)NCCCCC(NC(=O)c2cc(OC)c(OC)c(OC)c2)C(N)=O)cc(OC)c1OC (stereo not drawn) , what is its reported log10 IC50?
Result: 2.67

Ask: Cool, now COc1cc(C(=O)NCCCCC(NC(=O)C(CCCCNC(=O)c2cc(OC)c(O)c(OC)c2)NC(=O)C(CCCCNC(=O)c2cc(OC)c(O)c(OC)c2)NC(C)=O)C(N)=O)cc(OC)c1O (stereo not drawn)
Result: 2.08

Ask: Then this molecule: COc1ccc(C(=O)NCCCCC(NC(=O)c2ccc(OC)c(OC)c2)C(N)=O)cc1OC (stereo not drawn)
Result: 2.43

Ask: And then NC(=O)C(CCCCNC(=O)c1cc(O)cc(O)c1)NC(=O)C(CCCCNC(=O)c1cc(O)cc(O)c1)NC(=O)c1cc(O)cc(O)c1 (stereo not drawn) , what is it?
Result: 2.56

Ask: Entry to check: COc1cc(C(=O)NCCCC[C@@H](NC(=O)[C@@H](CCCCNC(=O)c2cc(OC)c(OC)c(OC)c2)NC(=O)[C@@H](CCCCNC(=O)c2cc(OC)c(OC)c(OC)c2)NC(=O)c2cc(OC)c(OC)c(OC)c2)C(N)=O)cc(OC)c1OC
Result: 2.33

Ask: Also check CCOC(=O)c1c(OC)cc(C(=O)O)cc1OC
Result: 2.52

Ask: NC(=O)C(CCCCNC(=O)C(CCCCNC(=O)c1cc(O)c(O)c(O)c1)NC(=O)c1cc(O)c(O)c(O)c1)NC(=O)C(CCCCNC(=O)c1cc(O)c(O)c(O)c1)NC(=O)c1cc(O)c(O)c(O)c1 (stereo not drawn) , same question.
Result: 1.24

Ask: Follow-up entry: COc1cc(C(=O)NCCCCC(NC(=O)C(CCCCNC(=O)c2cc(OC)c(O)c(OC)c2)NC(C)=O)C(N)=O)cc(OC)c1O (stereo not drawn)
Result: 2.16

Ask: NC(=O)C(CCCCNC(=O)c1cc(O)c(O)c(O)c1)NC(=O)C(CCCCNC(=O)c1cc(O)c(O)c(O)c1)NC(=O)C(CCCCNC(=O)c1cc(O)c(O)c(O)c1)NC(=O)c1cc(O)c(O)c(O)c1 (stereo not drawn) , same question.
Result: 1.17

Ask: Now give it for COc1ccc(C(=O)NCCCCC(NC(=O)C(CCCCNC(=O)c2ccc(OC)c(OC)c2)NC(C)=O)C(N)=O)cc1OC (stereo not drawn) too.
Result: 2.28

Ask: What do you have for COc1ccc(C(=O)NCCCCC(NC(=O)c2ccc(OC)c(OC)c2)C(=O)NCCCCC(NC(=O)C(CCCCNC(=O)c2ccc(OC)c(OC)c2)NC(=O)c2ccc(OC)c(OC)c2)C(N)=O)cc1OC (stereo not drawn) ?
Result: 2.02

Ask: Same question for CCOc1cc(C(=O)NCCCCC(NC(=O)C(CCCCNC(=O)c2cc(OCC)c(OCC)c(OCC)c2)NC(=O)c2cc(OCC)c(OCC)c(OCC)c2)C(N)=O)cc(OCC)c1OCC (stereo not drawn) please.
Result: 2.41

The origin of these recorded values is patent US7166296B2.
